- System: Colo205
- assaySummary: Cell survival assay (SRB), Colo205
- Assay type: cell-based
- conditionContext: Homo sapiens, COLO 205, 72 h, Colo205 cells, 3 days
pIC50: −log10 of the molar value.
measureName: pIC50

A selection of reference data follows.
molecule	target	result
CCOC(=O)/C(C)=C/[C@H](C(C)C)N(C)C(=O)[C@@H](NC(=O)C(CC)C(C)(C)c1ccccc1)C(C)(C)C (stereo partly drawn)	Colo205	< 6.00
C=CCC(C(=O)N[C@H](C(=O)N(C)[C@H](/C=C(\C)C(=O)OCC)C(C)C)C(C)(C)C)C(C)(C)c1ccccc1 (stereo partly drawn)	Colo205	< 6.00

Okay, now this molecule:
Colo205 pIC50 of CCOC(=O)/C(C)=C/[C@H](C(C)C)N(C)C(=O)[C@@H](NC(=O)C(Cc1ccccc1)C(C)(C)c1ccccc1)C(C)(C)C (stereo partly drawn) is < 6.00

---

- System: bovine microtubule-associated protein (MAP)-rich tubulin
- Assay type: biochemical
- conditionContext: 0.3 uM
- Procedure: Tubulin Polymerization Assays. For in vitro tubulin polymerization assays, bovine microtubule-associated protein (MAP)-rich tubulin, PEM buffer [80 mM Na-PIPES (pH 6.9), 1 mM MgCl2, and 1 mM EGTA], and GTP are purchased from Cytoskeleton (Denver, Colo.). […] After initiation of the reaction, absorbance at 340 nm is measured every minute for 60 min at 24° C. using a SpectraMax Plus plate reader (Molecular Devices, Sunnyvale, Calif.).
*1 amine or outer side, *2 acyl side, *3 side chain or, on linkers, in order; H or OH if unused. Where a SMILES comes first, the peptide text is derived from it. [ ]: non-standard residue; d: D form. The star is where a group is joined. NMePhe(β,β-Me2) = CN[C@H](C(=O)O)C(C)(C)c1ccccc1; X1 = C/C(=C\[C@H](C(C)C)N(C)[*:1])C(=O)[*:2]; Tle = CC(C)(C)[C@H](N)C(=O)O; NHBn = c1ccc(CN*)cc1
measureName: Tubulin Polym. % inhibition at 0.3 uM

molecule	Tubulin Polym. % inhibition at 0.3 uM
CN[C@H](C(=O)N[C@H](C(=O)N(C)[C@H](/C=C(\C)C(=O)N1CCC[C@@H]1C(=O)N1CCC[C@@H]1C(=O)NCc1ccccc1)C(C)C)C(C)(C)C)C(C)(C)c1ccccc1 [Example 28] (H-[NMePhe(β,β-Me2)][Tle][X1][dP][dP]-NHBn)	56(3) %
CN[C@H](C(=O)N[C@H](C(=O)N(C)[C@H](/C=C(\C)C(=O)N1CCN(C)CC1)C(C)C)C(C)(C)C)C(C)(C)c1ccccc1 [Example 26]	71(2) %

Please examine the following record next.
Memo: CN[C@H](C(=O)N[C@H](C(=O)N(C)[C@H](/C=C(\C)C(=O)N1CC=C[C@H]1C(=O)OC)C(C)C)C(C)(C)C)C(C)(C)c1ccccc1 [Example 47] , reported Tubulin Polym. % inhibition at 0.3 uM: 88(2) %
